target: recombinant human SGK-1 enzyme (Homo sapiens); assay: Enzymatic activity assay: SGK-1 substrate peptide phosphorylation (Caliper lab-chip mobility shift); assay type: biochemical; conditions: peptide substrate 1 μM, ATP 10 μM, 60 min at 37° C., read-out: IC50 values for inhibition of SGK-1 enzymatic activity
Sequence (O00141 whole entry, looked up): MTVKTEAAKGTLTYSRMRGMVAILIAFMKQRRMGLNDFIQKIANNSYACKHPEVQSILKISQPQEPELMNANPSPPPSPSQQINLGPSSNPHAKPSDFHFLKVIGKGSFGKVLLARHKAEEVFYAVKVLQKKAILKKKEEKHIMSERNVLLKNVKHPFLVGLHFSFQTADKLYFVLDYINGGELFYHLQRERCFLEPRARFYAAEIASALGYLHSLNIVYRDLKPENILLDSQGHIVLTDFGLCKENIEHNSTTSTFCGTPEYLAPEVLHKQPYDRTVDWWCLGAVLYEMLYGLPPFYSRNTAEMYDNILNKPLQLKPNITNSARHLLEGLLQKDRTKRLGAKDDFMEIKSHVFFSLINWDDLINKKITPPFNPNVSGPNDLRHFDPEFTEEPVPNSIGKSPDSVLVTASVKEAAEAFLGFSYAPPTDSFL
Recorded IC50 by entry
State the answer as a number, implicitly in nM.

Nc1n[nH]c2cc(-c3ccc(NS(=O)(=O)c4cc(F)cc(F)c4Cl)cc3)nc(C(F)(F)F)c12: 430
COc1ccc(Cl)c(S(=O)(=O)Nc2ccc(-c3nc(OCC4CNCCO4)c4cn[nH]c4n3)cc2)c1 (stereo not drawn): 7.1

IC50 for recombinant human SGK-1 enzyme (Homo sapiens) with input "O=S(=O)(Nc1ccc(-c2nc(N3CC(CO)C3)c3cn[nH]c3n2)cc1F)c1cc(Cl)ccc1F" equals 21

IC50 for recombinant human SGK-1 enzyme (Homo sapiens) with input "O=S(=O)(Nc1ccc(-c2nc(OCCCCO)c3cn[nH]c3n2)cc1)c1cc(Cl)ccc1F" equals 3.2

IC50 for recombinant human SGK-1 enzyme (Homo sapiens) with input "O=S(=O)(Nc1ccc(-c2nc(C3CC3)c3cn[nH]c3n2)cc1F)c1cc(Cl)ccc1F" equals 94

IC50 for recombinant human SGK-1 enzyme (Homo sapiens) with input Cc1ccc(C#N)c(S(=O)(=O)Nc2ccc(-c3nc(OC4CCNCC4F)c4c(C)n[nH]c4n3)cc2)c1 (stereo not drawn) equals 1.1
